- Test system: RARb homodimer (NR concentration 270 nM)
- assayNotes: PBM binding z-score (relative to random genomic background probes); higher = stronger binding; sequences stand for … in GC…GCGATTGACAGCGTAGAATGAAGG
Quick reference: PBM binding z-score of the listed items.
assayReadout: PBM binding z-score

{"itemSequence": "AGAATGAGGTTATACGTAGATCAGGGTAGAAAGT", "assayReadout": "PBM binding z-score", "quantitativeResult": 1.33}
{"itemSequence": "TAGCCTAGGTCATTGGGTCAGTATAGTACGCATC", "assayReadout": "PBM binding z-score", "quantitativeResult": 4.17}
{"itemSequence": "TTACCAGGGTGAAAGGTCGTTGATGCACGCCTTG", "assayReadout": "PBM binding z-score", "quantitativeResult": 2.58}
